Taken from ChEMBL document CHEMBL3885861.

Species on record: Rattus norvegicus
Assay: Open TG-GATES - Regimen: Single
Format: toxicity, organism-based, Sprague-Dawley
Set-up: regimen Single, gender Male, age 6 weeks
Conditions: in vivo, po, 0 mg/kg, 24 h, tissue Plasma, route gavage, dose level Control
A/G for assorted molecules
Test readout: A/G

molecule="CCCNC(=O)NS(=O)(=O)c1ccc(Cl)cc1 [CHLORPROPAMIDE]" observed_result=0.8
molecule=CN(C)CCN(Cc1cccs1)c1ccccn1 observed_result=1.2
molecule="NNC(=O)c1ccncc1 [ISONIAZID]" observed_result=1.6
molecule="CC1=C(/C=C/C(C)=C/C=C/C(C)=C/CO)C(C)(C)CCC1 [RETINOL]" observed_result=1.3
molecule="COC1=CC(=O)C[C@@H](C)[C@]12Oc1c(Cl)c(OC)cc(OC)c1C2=O [GRISEOFULVIN]" observed_result=1.7
molecule="Cc1ccc(C)c(OCCCC(C)(C)C(=O)O)c1 [GEMFIBROZIL]" observed_result=1
molecule="CCOc1ccc(NC(=O)CC(C)O)cc1 (centres undefined) [BUCETIN]" observed_result=0.9
molecule="NC(N)=Nc1nc(CSCCC(N)=NS(N)(=O)=O)cs1 [FAMOTIDINE]" observed_result=1.5
molecule="CCOC(=O)CCC(=O)O[C@H]1[C@H](O[C@@H]2[C@@H](C)[C@H](O[C@H]3C[C@@](C)(OC)[C@@H](O)[C@H](C)O3)[C@@H](C)C(=O)O[C@H](CC)[C@@](C)(O)[C@H](O)[C@@H](C)C(=O)[C@H](C)C[C@@]2(C)O)O[C@H](C)C[C@@H]1N(C)C [ERYTHROMYCIN ETHYLSUCCINATE]" observed_result=1.2

* * *

Listed here: items and their measured RBC.
Species on record: Rattus norvegicus
Experiment: Open TG-GATES - Regimen: Daily Repeat
Format: toxicity, organism-based, Sprague-Dawley
Design: regimen Daily Repeat, gender Male, age 6 weeks
Conditions: in vivo, po, 1000 mg/kg, […], tissue Blood, route gavage, dose level High, time 7 day
Test readout: RBC (x10_4/ul)

compound="CC(C)OC(=O)C(C)(C)Oc1ccc(C(=O)c2ccc(Cl)cc2)cc1 [FENOFIBRATE]" observed_result=612.2
compound=NC(N)=Nc1nc(CSCCC(N)=NS(N)(=O)=O)cs1 observed_result=634.4
compound="COc1ccc2[nH]c([S+]([O-])Cc3ncc(C)c(OC)c3C)nc2c1 (stereo not drawn)" observed_result=591.8

* * *

Species on record: Rattus norvegicus
Assay: Open TG-GATES - Regimen: Daily Repeat
Type: toxicity, organism-based, Sprague-Dawley
Design: regimen Daily Repeat, gender Male, age 6 weeks
Settings: in vivo, po, 300 mg/kg, 72 h, tissue Blood, route gavage, dose level Middle, time 3 day
# maps each entry to its PT
Test readout: PT (s)

compound="CCOC(=O)CCC(=O)O[C@H]1[C@H](O[C@@H]2[C@@H](C)[C@H](O[C@H]3C[C@@](C)(OC)[C@@H](O)[C@H](C)O3)[C@@H](C)C(=O)O[C@H](CC)[C@@](C)(O)[C@H](O)[C@@H](C)C(=O)[C@H](C)C[C@@]2(C)O)O[C@H](C)C[C@@H]1N(C)C [ERYTHROMYCIN ETHYLSUCCINATE]" test_readout=PT observed_result=15.8
compound="CCOc1ccc(NC(=O)CC(C)O)cc1 (stereo not given)" test_readout=PT observed_result=14.2
compound=COC1=CC(=O)C[C@@H](C)[C@]12Oc1c(Cl)c(OC)cc(OC)c1C2=O test_readout=PT observed_result=12.5
compound=NC(N)=Nc1nc(CSCCC(N)=NS(N)(=O)=O)cs1 test_readout=PT observed_result=12
compound="COc1ccc2[nH]c([S+]([O-])Cc3ncc(C)c(OC)c3C)nc2c1 (stereo not given)" test_readout=PT observed_result=12.2

* * *

Organism: Rattus norvegicus
Assay: Open TG-GATES - Regimen: Single
Assay type: toxicity, organism-based, Sprague-Dawley
Parameters: regimen Single, gender Male, age 6 weeks
Details: in vivo, po, 100 mg/kg, 3 h, tissue Blood, route gavage, dose level Low
Test readout: Lym (%)

compound="CCOC(=O)CCC(=O)O[C@H]1[C@H](O[C@@H]2[C@@H](C)[C@H](O[C@H]3C[C@@](C)(OC)[C@@H](O)[C@H](C)O3)[C@@H](C)C(=O)O[C@H](CC)[C@@](C)(O)[C@H](O)[C@@H](C)C(=O)[C@H](C)C[C@@]2(C)O)O[C@H](C)C[C@@H]1N(C)C [ERYTHROMYCIN ETHYLSUCCINATE]" observed_result=77.4
compound="NC(N)=Nc1nc(CSCCC(N)=NS(N)(=O)=O)cs1 [FAMOTIDINE]" observed_result=71.2
compound="COc1ccc2[nH]c([S+]([O-])Cc3ncc(C)c(OC)c3C)nc2c1 (centres undefined) [OMEPRAZOLE]" observed_result=77.2
compound="COC1=CC(=O)C[C@@H](C)[C@]12Oc1c(Cl)c(OC)cc(OC)c1C2=O [GRISEOFULVIN]" observed_result=77

* * *

Species: Rattus norvegicus
Experiment: Open TG-GATES - Regimen: Single
Type: toxicity, organism-based, Sprague-Dawley
Design: regimen Single, gender Male, age 6 weeks
Conditions: in vivo, po, 10 mg/kg, 6 h, tissue Plasma, route gavage, dose level Low
Test readout: DBIL (mg/dL)

molecule=CN(C)CCCN1c2ccccc2CCc2ccc(Cl)cc21 observed_result=0.01
molecule=CN(C)CCN(Cc1cccs1)c1ccccn1 observed_result=0.002
molecule=CC1=C(/C=C/C(C)=C/C=C/C(C)=C/CO)C(C)(C)CCC1 observed_result=0.008
molecule="CC(C)OC(=O)C(C)(C)Oc1ccc(C(=O)c2ccc(Cl)cc2)cc1 [FENOFIBRATE]" observed_result=0.01

* * *

Species on record: Rattus norvegicus
Assay: Open TG-GATES - Regimen: Single
Format: toxicity, organism-based, Sprague-Dawley
Set-up: regimen Single, gender Male, age 6 weeks
Settings: in vivo, po, 100 mg/kg, 24 h, tissue Plasma, route gavage, dose level Low
Test readout: LDH (IU/L)

molecule="CCOC(=O)CCC(=O)O[C@H]1[C@H](O[C@@H]2[C@@H](C)[C@H](O[C@H]3C[C@@](C)(OC)[C@@H](O)[C@H](C)O3)[C@@H](C)C(=O)O[C@H](CC)[C@@](C)(O)[C@H](O)[C@@H](C)C(=O)[C@H](C)C[C@@]2(C)O)O[C@H](C)C[C@@H]1N(C)C [ERYTHROMYCIN ETHYLSUCCINATE]" observed_result=183.2
molecule="COc1ccc2[nH]c([S+]([O-])Cc3ncc(C)c(OC)c3C)nc2c1 (centres undefined)" observed_result=195.8
molecule=COC1=CC(=O)C[C@@H](C)[C@]12Oc1c(Cl)c(OC)cc(OC)c1C2=O observed_result=146.6
molecule=NC(N)=Nc1nc(CSCCC(N)=NS(N)(=O)=O)cs1 observed_result=198.4

* * *

In this section, each of the compounds is paired with its reported KIDNEY_L.
Species: Rattus norvegicus
Assay: Open TG-GATES - Regimen: Single
Format: toxicity, organism-based, Sprague-Dawley
Set-up: regimen Single, gender Male, age 6 weeks
Conditions: in vivo, po, 1000 mg/kg, 3 h, tissue Kidney, route gavage, dose level High
Test readout: KIDNEY_L (g)

compound=NC(N)=Nc1nc(CSCCC(N)=NS(N)(=O)=O)cs1 unit_symbol=g observed_result=1
compound=COC1=CC(=O)C[C@@H](C)[C@]12Oc1c(Cl)c(OC)cc(OC)c1C2=O unit_symbol=g observed_result=0.9
compound="CC(C)OC(=O)C(C)(C)Oc1ccc(C(=O)c2ccc(Cl)cc2)cc1 [FENOFIBRATE]" unit_symbol=g observed_result=0.8
compound="COc1ccc2[nH]c([S+]([O-])Cc3ncc(C)c(OC)c3C)nc2c1 (stereo not given)" unit_symbol=g observed_result=1
compound="CCOC(=O)CCC(=O)O[C@H]1[C@H](O[C@@H]2[C@@H](C)[C@H](O[C@H]3C[C@@](C)(OC)[C@@H](O)[C@H](C)O3)[C@@H](C)C(=O)O[C@H](CC)[C@@](C)(O)[C@H](O)[C@@H](C)C(=O)[C@H](C)C[C@@]2(C)O)O[C@H](C)C[C@@H]1N(C)C [ERYTHROMYCIN ETHYLSUCCINATE]" unit_symbol=g observed_result=1

* * *

Species on record: Rattus norvegicus
Experiment: Open TG-GATES - Regimen: Daily Repeat
Format: toxicity, organism-based, Sprague-Dawley
Parameters: regimen Daily Repeat, gender Male, age 6 weeks
Details: in vivo, po, 1000 mg/kg, […], tissue Blood, route gavage, dose level High, time 14 day
# Mono values compiled below
Test readout: Mono

molecule="COc1ccc2[nH]c([S+]([O-])Cc3ncc(C)c(OC)c3C)nc2c1 (stereo unspecified) [OMEPRAZOLE]" observed_result=2.6%
molecule="CCOc1ccc(NC(=O)CC(C)O)cc1 (stereo unspecified) [BUCETIN]" observed_result=3%
molecule="COC1=CC(=O)C[C@@H](C)[C@]12Oc1c(Cl)c(OC)cc(OC)c1C2=O [GRISEOFULVIN]" observed_result=3%
molecule="NC(N)=Nc1nc(CSCCC(N)=NS(N)(=O)=O)cs1 [FAMOTIDINE]" observed_result=2.2%
molecule="CC(C)OC(=O)C(C)(C)Oc1ccc(C(=O)c2ccc(Cl)cc2)cc1 [FENOFIBRATE]" observed_result=3.4%
molecule="CCOC(=O)CCC(=O)O[C@H]1[C@H](O[C@@H]2[C@@H](C)[C@H](O[C@H]3C[C@@](C)(OC)[C@@H](O)[C@H](C)O3)[C@@H](C)C(=O)O[C@H](CC)[C@@](C)(O)[C@H](O)[C@@H](C)C(=O)[C@H](C)C[C@@]2(C)O)O[C@H](C)C[C@@H]1N(C)C [ERYTHROMYCIN ETHYLSUCCINATE]" observed_result=3.2%
